# System under test: NET (Rattus norvegicus, UniProt Q63380)
# Sequence (Q63380 1-617): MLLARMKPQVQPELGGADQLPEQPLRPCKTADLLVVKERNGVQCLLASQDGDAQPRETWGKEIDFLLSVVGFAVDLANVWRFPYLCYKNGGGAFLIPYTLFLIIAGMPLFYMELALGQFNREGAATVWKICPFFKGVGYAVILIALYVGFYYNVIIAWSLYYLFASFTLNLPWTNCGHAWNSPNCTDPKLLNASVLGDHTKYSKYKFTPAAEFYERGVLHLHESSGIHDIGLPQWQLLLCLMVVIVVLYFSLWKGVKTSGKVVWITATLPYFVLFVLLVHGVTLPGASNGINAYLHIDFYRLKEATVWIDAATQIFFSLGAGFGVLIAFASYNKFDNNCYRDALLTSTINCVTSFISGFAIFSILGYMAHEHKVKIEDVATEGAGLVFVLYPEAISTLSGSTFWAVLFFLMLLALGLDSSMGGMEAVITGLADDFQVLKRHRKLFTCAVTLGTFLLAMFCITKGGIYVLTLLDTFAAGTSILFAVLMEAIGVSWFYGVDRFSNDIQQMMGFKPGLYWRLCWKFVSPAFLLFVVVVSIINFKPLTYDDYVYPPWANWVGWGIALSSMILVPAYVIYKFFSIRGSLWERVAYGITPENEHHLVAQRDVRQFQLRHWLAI
# Experiment notes: Inhibition of [3H]norepinephrine uptake in rat brain synaptosomes
pIC50: −log10 of the molar value.
Readout kind: pIC50

INSERT INTO results (compound, numeric_value) VALUES
  ('CNC(C)Cc1ccc2c(c1)OCO2 (stereo not shown) [MDMA, 3,4-methylenedioxymethamphetamine]', 6.35);

* * *

# System under test: NET (Rattus norvegicus, UniProt Q63380)
# Experiment notes: Release of [3H]MPP+ via NET in rat brain synaptosomes
Readout kind: EC50 (µM)

INSERT INTO results (compound, unit_text, numeric_value) VALUES
  ('CNC(C)Cc1ccc2c(c1)OCO2 (stereo not shown) [MDMA, 3,4-methylenedioxymethamphetamine]', 'µM', 0.053);

* * *

# System under test: UniProtKB P23977
# Experiment notes: Release of [3H]MPP+ via DAT in rat brain synaptosomes
pEC50: −log10 of the molar value.
Readout kind: pEC50

INSERT INTO results (molecule, system_under_test, readout_kind, numeric_value) VALUES
  ('CNC(C)Cc1ccc2c(c1)OCO2 (stereo not shown) [MDMA, 3,4-methylenedioxymethamphetamine]', 'UniProtKB P23977', 'pEC50', 7.38);

* * *

# System under test: DAT (Rattus norvegicus)
# Sequence (P23977 whole entry): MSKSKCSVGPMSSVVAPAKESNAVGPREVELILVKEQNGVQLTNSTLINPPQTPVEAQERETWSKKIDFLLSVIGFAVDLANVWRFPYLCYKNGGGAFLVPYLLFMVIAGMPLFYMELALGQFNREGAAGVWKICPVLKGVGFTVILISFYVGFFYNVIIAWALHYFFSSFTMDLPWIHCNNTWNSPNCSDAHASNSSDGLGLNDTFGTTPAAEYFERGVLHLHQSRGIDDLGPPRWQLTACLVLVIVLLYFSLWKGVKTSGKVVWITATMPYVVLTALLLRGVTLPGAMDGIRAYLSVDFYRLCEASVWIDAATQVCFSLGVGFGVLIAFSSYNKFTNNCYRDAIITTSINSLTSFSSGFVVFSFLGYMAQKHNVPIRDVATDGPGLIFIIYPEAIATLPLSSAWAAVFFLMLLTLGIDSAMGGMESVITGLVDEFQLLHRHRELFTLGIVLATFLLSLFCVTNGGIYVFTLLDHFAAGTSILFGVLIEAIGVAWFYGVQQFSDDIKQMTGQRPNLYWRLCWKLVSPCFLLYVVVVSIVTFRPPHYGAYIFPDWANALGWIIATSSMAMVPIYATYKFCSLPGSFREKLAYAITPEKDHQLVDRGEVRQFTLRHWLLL
# Experiment notes: Inhibition of [3H]dopamine uptake in rat brain synaptosomes
Readout kind: IC50 (nM)

INSERT INTO measurements (compound, numeric_value) VALUES
  ('CNC(C)Cc1ccc2c(c1)OCO2 (stereo not shown)', 1010);
